Hello, the source for this data is patent US20100196385A1, in case you need it.

Target: T1, full length human DLL4 (human, UniProt Q9NR61 27-685)
T1 construct: whole, on cells; also called native DLL4 expressed in HEK293 cells
T1 sequence (Q9NR61 27-685): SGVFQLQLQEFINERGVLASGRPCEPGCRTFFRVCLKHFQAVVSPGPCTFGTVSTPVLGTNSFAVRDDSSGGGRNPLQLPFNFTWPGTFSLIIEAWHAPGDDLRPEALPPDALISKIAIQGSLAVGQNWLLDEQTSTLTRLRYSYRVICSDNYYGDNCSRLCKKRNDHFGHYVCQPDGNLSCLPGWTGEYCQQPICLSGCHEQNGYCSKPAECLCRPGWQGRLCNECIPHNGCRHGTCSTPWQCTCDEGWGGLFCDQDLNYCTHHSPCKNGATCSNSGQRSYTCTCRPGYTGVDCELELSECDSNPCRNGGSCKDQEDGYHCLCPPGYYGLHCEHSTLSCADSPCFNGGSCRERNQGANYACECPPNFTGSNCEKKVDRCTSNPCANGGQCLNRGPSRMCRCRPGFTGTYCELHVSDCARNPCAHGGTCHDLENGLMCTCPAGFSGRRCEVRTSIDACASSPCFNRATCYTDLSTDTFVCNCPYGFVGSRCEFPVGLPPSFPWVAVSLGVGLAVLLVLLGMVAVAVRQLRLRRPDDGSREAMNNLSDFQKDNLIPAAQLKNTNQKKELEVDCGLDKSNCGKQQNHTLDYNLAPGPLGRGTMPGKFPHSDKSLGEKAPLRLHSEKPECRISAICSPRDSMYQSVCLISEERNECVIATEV
Assay: FMAT competition, purified antibody vs Alexa-647 human Notch1/Fc, 293T cells with human DLL4
Each entry below carries its reported % inhibition at 0.62 nM.
READOUT_NAME: % inhibition at 0.62 nM (%)

3A7 (antibody, IgG4, V domains shown, Fully human; also used where no isotype is printed) VH: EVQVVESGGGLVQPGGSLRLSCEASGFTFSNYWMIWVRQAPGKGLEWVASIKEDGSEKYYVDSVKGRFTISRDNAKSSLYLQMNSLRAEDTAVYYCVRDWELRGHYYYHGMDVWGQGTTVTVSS VL: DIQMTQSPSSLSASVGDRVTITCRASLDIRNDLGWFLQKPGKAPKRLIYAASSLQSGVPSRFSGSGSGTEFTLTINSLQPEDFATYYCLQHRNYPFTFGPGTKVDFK :: 19
4B4 (antibody, IgG4, V domains shown, Fully human; used for IgG4 rows and where no isotype is printed; also called 4B4 IgG4; 4B4.1) VH: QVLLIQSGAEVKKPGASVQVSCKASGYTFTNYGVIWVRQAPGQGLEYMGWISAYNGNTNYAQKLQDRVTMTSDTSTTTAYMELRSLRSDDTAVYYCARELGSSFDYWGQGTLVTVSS VL: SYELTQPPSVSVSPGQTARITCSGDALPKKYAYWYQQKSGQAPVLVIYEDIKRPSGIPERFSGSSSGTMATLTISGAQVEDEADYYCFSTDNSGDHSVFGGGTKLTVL :: 65
2H10 (antibody, IgG4, V domains shown, Fully human; used for IgG4 rows and where no isotype is printed; also called 2H10 IgG4) VH: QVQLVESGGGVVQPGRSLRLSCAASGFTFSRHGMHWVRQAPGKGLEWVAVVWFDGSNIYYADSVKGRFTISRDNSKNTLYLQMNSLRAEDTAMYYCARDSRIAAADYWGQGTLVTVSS VL: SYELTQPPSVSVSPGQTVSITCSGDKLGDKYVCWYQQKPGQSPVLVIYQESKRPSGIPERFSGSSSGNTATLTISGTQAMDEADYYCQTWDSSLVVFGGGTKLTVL :: 27
